Target sequence: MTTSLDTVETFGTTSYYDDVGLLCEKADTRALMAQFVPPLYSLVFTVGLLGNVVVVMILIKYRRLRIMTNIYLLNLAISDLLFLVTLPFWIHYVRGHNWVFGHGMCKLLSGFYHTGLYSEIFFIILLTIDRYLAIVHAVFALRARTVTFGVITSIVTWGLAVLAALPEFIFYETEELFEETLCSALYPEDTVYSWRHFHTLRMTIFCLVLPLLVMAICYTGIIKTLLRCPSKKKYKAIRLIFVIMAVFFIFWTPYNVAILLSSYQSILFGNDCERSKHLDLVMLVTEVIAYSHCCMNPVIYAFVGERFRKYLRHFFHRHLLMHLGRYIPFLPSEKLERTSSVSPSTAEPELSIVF
Returns: string. Value is YES if measured IC50 is below 50 nM, and NO if it is greater than or equal to it.

compound: CC(=O)c1cccc(NC(=O)NCCCN2CC3CCC2[C@@H](Cc2ccc(F)cc2)C3)c1 (stereo not given in full)
group-label: NO
--
compound: CC(=O)c1cccc(NC(=O)NCCCN2C[C@H]3Cc4ccc(F)cc4C[C@H]3C2)c1
group-label: NO
--
compound: CC(=O)c1cccc(NC(=O)NCCCN2CC3(Cc4ccc(F)cc4)CCC2CC3)c1
group-label: YES
--
compound: O=C(NCCCN1CCC[C@@H](Cc2ccc(F)cc2)C1)Nc1cccc(-n2ccnc2)c1
group-label: YES
--
compound: Cn1nnnc1-c1cc(NC(=O)NCCCN2CCC[C@@H](Cc3ccc(F)cc3)C2)cc(-c2nnnn2C)c1
group-label: YES
--
compound: CC(=O)c1cc(NC(=O)NCCCN2CCC[C@@H](Cc3ccc(F)cc3)C2)cc(C(C)=O)c1
group-label: YES
--
compound: CC(=O)c1cc(NC(=O)NCCCN2CCC[C@@H](Cc3ccc(F)cc3)C2)cc(-c2nnnn2C)c1
group-label: YES
--
compound: CC(=O)c1cccc(NC(=O)NCCCN2[C@@H]3CC[C@H]2C[C@@H](Cc2ccc(F)cc2)C3)c1 (stereo in doubt; 22)
group-label: YES

Next up:
stdin: Threshold test, IC50 < 50 nM: CC(=O)c1cccc(NC(=O)NCCCN2CC3CCC2[C@H](Cc2ccc(F)cc2)C3)c1 (stereo not given in full)
stdout: NO
